# Species: Rattus norvegicus
# assay-comment: DrugMatrix - Regimen: Daily Repeat
# Assay type: toxicity, organism-based, Sprague-Dawley
# Design: regimen Daily Repeat, gender Male, age 6-8 weeks
# assay-conditions: in vivo, po, 100 mg/kg, 72 h, tissue Blood, route oral GAVAGE, dose level Low, time 3 day, vehicle .5 % CMC
property: MONOCYTE (%)
Respond numerically; units are % and should not be typed.

Guide cases for MONOCYTE, answers given:
INSERT INTO measurements (compound, observed) VALUES
  ('CC=Cc1ccc(O)c(OC)c1 [ISOEUGENOL]', 2),
  ('C#C[C@]1(O)CC[C@H]2[C@@H]3CCC4=Cc5oncc5C[C@]4(C)[C@H]3CC[C@@]21C [DANAZOL]', 1),
  ('Nc1nc2c(c(=O)[nH]1)N(C=O)C(CNc1ccc(C(=O)N[C@@H](CCC(=O)O)C(=O)O)cc1)CN2 (some centres undefined) [LEUCOVORIN]', 0.67);

Turning now to a further record.
Supply MONOCYTE value. Item: `CC[C@]1(O)CC[C@H]2[C@@H]3CCC4=CCCC[C@@H]4[C@H]3CC[C@@]21C`
2.57

----------
# Species: Rattus norvegicus
# assay-comment: DrugMatrix - Regimen: Daily Repeat
# Type: toxicity, organism-based, Sprague-Dawley
# Parameters: regimen Daily Repeat, gender Male, age 6-8 weeks
# assay-conditions: in vivo, po, 80 mg/kg, 2184 h, tissue Blood, route oral GAVAGE, dose level Low, time 91 day, vehicle .5 % CMC
property: ABSOLUTE MONOCYTE

Supply ABSOLUTE MONOCYTE value. Item: `O=c1cc(-c2ccccc2)oc2ccc3ccccc3c12`
290 cells/µL

----------
# Species: Rattus norvegicus
# assay-comment: DrugMatrix - Regimen: Daily Repeat
# Type: toxicity, organism-based, Sprague-Dawley
# Design: regimen Daily Repeat, gender Male, age 6-8 weeks
# assay-conditions: in vivo, po, 0 mg/kg, 72 h, tissue Plasma, route oral GAVAGE, dose level Control, time 3 day, vehicle 100 % WATER
Give criterion met when the value for CARBON DIOXIDE is at least 30 mmol/L. Give criterion not met when it is less.

INSERT INTO results (molecule, category) VALUES
  ('CCOC(N)=O', 'criterion not met'),
  ('CNS(=O)(=O)Cc1ccc2[nH]cc(CCN(C)C)c2c1', 'criterion not met'),
  ('O=P1(N(CCCl)CCCl)NCCCO1 (stereo not given) [CYCLOPHOSPHAMIDE ANHYDROUS]', 'criterion met');

Could you now consider this next molecule?
Hi, just wondering whether CN1C2CCCC1CC(NC(=O)c1nn(C)c3ccccc13)C2 (stereo not given) shows CARBON DIOXIDE of 30 mmol/L or higher.
criterion met

----------
Entries and their measured ERYTHROCYTE COUNT follow.
# Organism: Rattus norvegicus
# assay-comment: DrugMatrix - Regimen: Daily Repeat
# Assay type: toxicity, organism-based, Sprague-Dawley
# Parameters: regimen Daily Repeat, gender Male, age 6-8 weeks
# assay-conditions: in vivo, po, 0 mg/kg, 72 h, tissue Blood, route oral GAVAGE, dose level Control, time 3 day, vehicle 100 % WATER
Respond numerically; units are x10E6/uL and should not be typed.

Guide cases for ERYTHROCYTE COUNT, answers given:
INSERT INTO measurements (compound, reading_unit, observed) VALUES
  ('Nc1ccc(S(=O)(=O)Nc2nccs2)cc1', 'x10E6/uL', 5.49),
  ('Nc1ccc(S(=O)(=O)Nc2ncccn2)cc1', 'x10E6/uL', 5.8),
  ('CC[C@H]1OC(=O)[C@H](C)[C@@H](O[C@H]2C[C@@](C)(OC)[C@@H](O)[C@H](C)O2)[C@H](C)[C@@H](O[C@@H]2O[C@H](C)C[C@H](N(C)C)[C@H]2O)[C@](C)(O)C[C@@H](C)CN(C)[C@H](C)[C@@H](O)[C@]1(C)O', 'x10E6/uL', 5),
  ('O=P1(N(CCCl)CCCl)NCCCO1 (centres undefined) [CYCLOPHOSPHAMIDE ANHYDROUS]', 'x10E6/uL', 5.38),
  ('CNS(=O)(=O)Cc1ccc2[nH]cc(CCN(C)C)c2c1', 'x10E6/uL', 5.57),
  ('CCCCCCCCCCCCCCCC[n+]1ccccc1.[Br-]', 'x10E6/uL', 5.52);

Supply ERYTHROCYTE COUNT value. Item: CN1C2CCCC1CC(NC(=O)c1nn(C)c3ccccc13)C2 (centres undefined)
5.49

Supply ERYTHROCYTE COUNT value. Item: `OCCO`
5.35

Supply ERYTHROCYTE COUNT value. Item: `CCOC(N)=O`
5.26
